Here's what we have: pIC50 numbers for Acetylcholinesterase (Homo sapiens, UniProt P22303).
pIC50: −log10 of the molar value.
PROPERTY_LABEL: pIC50

INSERT INTO measurements (compound, experimental_system, observed_value) VALUES
  ('O=C1Cc2c(ccc3c(CCC4CCN(Cc5ccccc5)CC4)noc23)N1', 'Acetylcholinesterase (Homo sapiens, UniProt P22303)', 8.44),
  ('O=C1CCc2cc3c(CCC4CCN(Cc5ccccc5)CC4)noc3cc2N1', 'Acetylcholinesterase (Homo sapiens, UniProt P22303)', 9.24),
  ('O=C1Cc2cc3onc(CCC4CCN(Cc5ccccc5)CC4)c3cc2N1', 'Acetylcholinesterase (Homo sapiens, UniProt P22303)', 9.02),
  ('CN1C(=O)Cc2cc3c(CCC4CCN(Cc5ccccc5)CC4)noc3cc21', 'Acetylcholinesterase (Homo sapiens, UniProt P22303)', 9.32),
  ('O=C(O)/C=C\C(=O)O.O=C1Cc2cc3c(CCC4CCN(Cc5ccccc5)CC4)noc3cc2N1 [ICOPEZIL MALEATE]', 'Acetylcholinesterase (Homo sapiens, UniProt P22303)', 9.48);

---

Assay: Safety index is the ratio of acute lethality LD50 to extracellular AchE ED50.
Format: toxicity
Settings: read-out: Safety index
PROPERTY_LABEL: selectivity ratio

INSERT INTO results (compound, property_label, observed_value) VALUES
  ('O=C(O)/C=C\C(=O)O.O=C1Cc2cc3c(CCC4CCN(Cc5ccccc5)CC4)noc3cc2N1 [ICOPEZIL MALEATE]', 'selectivity ratio', 105);

---

Here's what we have: pIC50 numbers for Cholinesterase (Homo sapiens).
pIC50: −log10 of the molar value.
PROPERTY_LABEL: pIC50

INSERT INTO measurements (compound, observed_value) VALUES
  ('O=C1Cc2cc3onc(CCC4CCN(Cc5ccccc5)CC4)c3cc2N1', 5.41),
  ('O=C1CCc2cc3c(CCC4CCN(Cc5ccccc5)CC4)noc3cc2N1', 5.40),
  ('O=C1Cc2c(ccc3c(CCC4CCN(Cc5ccccc5)CC4)noc23)N1', 5.66),
  ('CN1C(=O)Cc2cc3c(CCC4CCN(Cc5ccccc5)CC4)noc3cc21', 5.35),
  ('CC(=O)Nc1ccc2c(CCC3CCN(Cc4ccccc4)CC3)noc2c1', 5.05),
  ('O=C(O)/C=C\C(=O)O.O=C1Cc2cc3c(CCC4CCN(Cc5ccccc5)CC4)noc3cc2N1 [ICOPEZIL MALEATE]', 5.14);
